This section presents compounds with their documented TGI values.
System: IGROV1 ovarian
Test: NCI tumour cell line growth inhibition, 48 h
QUANTITY NAME: TGI (µM)

[[record]]
substance_smiles = "S=C(Nc1cccc(Cl)c1)Nc1ccccn1"
measured_target = "IGROV1 ovarian"
quantity_name = "TGI"
readout_units = "µM"
limit_qualifier = ">"
endpoint_value = 100

[[record]]
substance_smiles = "Cn1c(=O)c2[nH]c(CS(=O)(=O)Cc3nc4c([nH]3)c(=O)n(C)c(=O)n4C)nc2n(C)c1=O"
measured_target = "IGROV1 ovarian"
quantity_name = "TGI"
readout_units = "µM"
limit_qualifier = ">"
endpoint_value = 100

[[record]]
substance_smiles = "O=S1(=O)CCN(Cc2ccccc2)/C1=N\\S(=O)(=O)c1ccc(Cl)cc1"
measured_target = "IGROV1 ovarian"
quantity_name = "TGI"
readout_units = "µM"
limit_qualifier = "="
endpoint_value = 32.5

[[record]]
substance_smiles = "COc1ccc(CN(CCc2c[nH]c3ccccc23)Cc2ccc(OC)cc2)cc1"
measured_target = "IGROV1 ovarian"
quantity_name = "TGI"
readout_units = "µM"
limit_qualifier = "="
endpoint_value = 9.49

[[record]]
substance_smiles = "CC1(C)N=C(N)N=C(N)N1c1cc(Cl)ccc1Cl"
measured_target = "IGROV1 ovarian"
quantity_name = "TGI"
readout_units = "µM"
limit_qualifier = "="
endpoint_value = 88.6

[[record]]
substance_smiles = "CCOC(=O)c1c(NC(=O)Nc2ccccc2)c(C(N)=O)c2n1CCCCC2"
measured_target = "IGROV1 ovarian"
quantity_name = "TGI"
readout_units = "µM"
limit_qualifier = ">"
endpoint_value = 100

